Tested on: HepG2
experiment: cell viability relative to DMSO; higher = less toxic
reported_conditions: 72 h; 10000 nM
measured_attribute: cell viability (%)
Numbers only, in %.

-- ask Quick one: cell viability of "CCN(CCNC(=O)Nc1ccccc1Br)c1cccc(C)c1" ?
-- reply 96.5

Hi there! I need cell viability for each item below, if you can.
1. COc1ccc(OC)c2c(=S)c3ccccc3[nH]c12
2. O=C(NO)C1(CS(=O)(=O)c2ccc(Oc3ccc(Cl)cc3)cc2)CCOCC1 [CTS-1027]
3. CN1C(=O)C(F)=C[C@]2(C)[C@H]3CC[C@]4(C)[C@@H](C(=O)NCc5nc6cccnc6[nH]5)CC[C@H]4[C@@H]3CC[C@@H]12 [MK-0773]
4. O=C(OCC(O)CO)c1ccccc1Nc1ccnc2cc(Cl)ccc12 (centres undefined) [glafenine]
5. O=C(Cn1ccnc1[N+](=O)[O-])NCc1ccccc1 [benznidazole]

-- reply
[76.6, 96.3, 87.9, 94.3, 94.2]

====

Tested on: U2OS
experiment: cell viability relative to DMSO; higher = less toxic
reported_conditions: 72 h; 10 nM
measured_attribute: cell viability (%)
Numbers only, in %.

-- ask Record C=CCN1CC[C@]23c4c5ccc(O)c4O[C@H]2/C(=N/NC(=O)c2ccccc2)CC[C@@]3(O)[C@H]1C5 [naloxone-benzoylhydrazone] : what is its cell viability with U2OS?
-- reply 101

-- ask Record COc1ccc(C2(CNC(=O)c3ccc(NC(=O)c4ccco4)cc3)CCOCC2)cc1 [JW-55] : what is its cell viability with U2OS?
-- reply 95.9

-- ask Record CC(C)NC[C@@H](O)COc1ccccc1-n1cccc1 (racemic) [isamoltane] : what is its cell viability with U2OS?
-- reply 99

Hi there! I need cell viability for each item below, if you can.
1. Cc1cc(=O)oc2c(C=O)c(O)ccc12 [4-mu-8C]
2. Fc1cc(F)c2c(c1)[C@H]1C=CC[C@H]1C(c1cccnc1)N2 (stereo partly drawn) [Golgicide A]

-- reply
1: 101; 2: 101

Hi there! I need cell viability for each item below, if you can.
1. NC(=O)N1CCC(CC(=O)N2CCC([C@H]3c4ncc(Br)cc4CCc4cc(Cl)cc(Br)c43)CC2)CC1 [lonafarnib]
2. O=C(O)COc1cccc(-c2ocnc2-c2nc(-c3ccccc3)c(-c3ccccc3)o2)c1
3. CN(C)c1nc(N)c(C(=O)Nc2cccnc2)nc1Cl [ACDPP]
4. CCC1(CC)C(=O)C=CNC1=O [pyrithyldione]

-- reply
1: 100; 2: 97.7; 3: 98; 4: 95

====

Test system: U2OS
experiment: relative viability EC50 (midpoint between 100% and the lowest measured viability); higher = less toxic
reported_conditions: 72 h
measured_attribute: relative viability EC50

Before answering, review these 7 worked examples.
-- ask Quick one: relative viability EC50 of N[C@@H]1[C@H]2CN(c3nc4c(cc3F)c(=O)c(C(=O)O)cn4-c3ccc(F)cc3F)C[C@@H]12 [trovafloxacin] ?
-- reply > 10 µM

-- ask Quick one: relative viability EC50 of C#C[C@]1(O)C=C[C@H]2[C@@H]3CCC4=CC(=O)CC[C@@H]4[C@H]3CC[C@@]21CC [gestodene] ?
-- reply > 10 µM

-- ask Quick one: relative viability EC50 of COc1cc(C)c(/C=C/C(C)=C/C=C/C(C)=C/C(=O)O)c(C)c1C [acitretin] ?
-- reply > 10 µM

-- ask Quick one: relative viability EC50 of CN1CCC(NC(=O)c2cc(-c3c(O)cc(O)cc3Oc3ccc([N+](=O)[O-])cc3)on2)CC1 [NMS-E973] ?
-- reply 0.65 µM

-- ask Quick one: relative viability EC50 of O=C1N[C@@H]2[C@@H](O)[C@@H](O)[C@H](O)[C@@H](CO)N2C1=O [kifunensine] ?
-- reply > 10 µM

-- ask Quick one: relative viability EC50 of COc1ccc(C2(CNC(=O)c3ccc(NC(=O)c4ccco4)cc3)CCOCC2)cc1 [JW-55] ?
-- reply > 10 µM

-- ask Quick one: relative viability EC50 of COc1cc(C[C@@H](CO)[C@H](CO)Cc2ccc(O)c(OC)c2)ccc1O [secoisolariciresinol-(-)] ?
-- reply > 10 µM

Shifting focus to the compound that follows.
-- ask Quick one: relative viability EC50 of Fc1cc(F)c2c(c1)[C@H]1C=CC[C@H]1C(c1cccnc1)N2 (stereo partly drawn) [Golgicide A] ?
-- reply 3.46 µM
